# protocol-details: Inhibition of HCV NS5B polymerase after 30 mins
# Parameters: species or system Hepacivirus hominis
quantity-kind: IC50 (µM)

In the examples that follow, each entry is paired with its recorded IC50.
Nc1ccn([C@@H]2O[C@@]3(COP(=O)(O)OP(=O)(O)OP(=O)(O)O)CO[C@H]3[C@@H]2F)c(=O)n1 :: 78.9
Nc1ccn([C@@H]2O[C@@]3(COP(=O)(O)OP(=O)(O)OP(=O)(O)O)CO[C@H]3C2(F)F)c(=O)n1 :: 32.8

[a] C[C@@]1(F)[C@H](O)[C@@H](COP(=O)(O)OP(=O)(O)OP(=O)(O)O)O[C@H]1n1ccc(N)nc1=O
[b] Nc1ccn([C@@H]2O[C@@]3(COP(=O)(O)OP(=O)(O)OP(=O)(O)O)CO[C@H]3[C@H]2F)c(=O)n1
Task item: For the pair a and b , which entry has the numerically smaller recorded IC50? Indicate your choice by writing its label.
Reply: a
(a: 5.37 µM, b: 31 µM)

* * *

# protocol-details: Inhibition of HCV NS5B polymerase after 30 mins
# Parameters: species or system Hepacivirus hominis
quantity-kind: pKi
Notebook: values listed as pKi are -log10 of the concentration (mol/L).

Just so you know, measured pKi for C[C@@]1(F)[C@H](O)[C@@H](COP(=O)(O)OP(=O)(O)OP(=O)(O)O)O[C@H]1n1ccc(N)nc1=O came out at 7.23

* * *

# protocol-details: Cytotoxicity against human HuH7 cells by MTS assay
# Type: cell-based, Huh-7
quantity-kind: CC50

Nc1ccn([C@@H]2O[C@H](CO)[C@@H](O)C2(F)F)c(=O)n1 [GEMCITABINE] :: < 0.1 µM
Nc1ccn([C@@H]2O[C@@]3(CO)CO[C@H]3[C@@H]2F)c(=O)n1 :: > 50 µM
C[C@@]1(F)[C@H](O)[C@@H](CO)O[C@H]1n1ccc(N)nc1=O :: > 50 µM

Just so you know, measured CC50 for C[C@@]1(F)[C@@H]2OC[C@]2(CO)O[C@H]1n1ccc(N)nc1=O came out at > 50 µM

Just so you know, measured CC50 for Nc1ccn([C@@H]2O[C@H](CO)[C@@H](O)[C@H]2F)c(=O)n1 came out at > 50 µM
